# experiment-notes: drug combination growth inhibition, ovarian cancer – cell-based, oncology-focused library, rucaparib conditional, profiling panel (AID 1508598)
# details: patient-derived ovarian cancer cells, CellTiter-Glo viability, 144 h; at 0.000305 µM; OCI-C5x cells; without rucaparib
Active and inactive are the calls of the source.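 How the source made its calls: active means normalized viability below 100% at a tested concentration; inactive means the rest.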
Reply using exactly one outcome from active, inactive

Input: Test call for this compound, please: CC(C)(C)Cn1c(N)nc2ccc(-c3[nH]c(C(C)(C)C)nc3-c3ccc(F)cc3)nc21
Output: inactive

Input: One more compound: CCCS(=O)(=O)Nc1ccc(F)c(C(=O)c2c[nH]c3ncc(-c4ccc(Cl)cc4)cc23)c1F
Output: active

Input: One more compound: CCCCc1nc2cc(/C=C/C(=O)NO)ccc2n1CCN(CC)CC
Output: inactive

Input: One more compound: Cc1nnc(C(C)C)n1C1CC2CCC(C1)N2CC[C@H](NC(=O)C1CCC(F)(F)CC1)c1ccccc1 (stereo partly specified)
Output: inactive

Input: One more compound: Cc1ccc2nc(NC(=O)CSc3nc4c(c(=O)n3-c3ccccc3)SCC4)sc2c1
Output: inactive

Input: One more compound: Cc1ccc(-c2csc(NC(=O)c3ccccc3)n2)c(C)c1
Output: inactive

Input: One more compound: C/C(=C\C(=O)Nc1ccccc1C(=O)O)c1ccc2ccccc2c1
Output: inactive

Input: One more compound: CC(C)(C)c1cc(NC(=O)Nc2ccc(-c3cn4c(n3)sc3cc(OCCN5CCOCC5)ccc34)cc2)no1
Output: inactive

Input: One more compound: CNC(=O)c1cc(COc2nnc(Nc3ccc(Cl)cc3)c3ccoc23)ccn1
Output: inactive

Input: One more compound: CC(=O)c1c(C)c2cnc(Nc3ccc(N4CCNCC4)cn3)nc2n(C2CCCC2)c1=O
Output: active

Input: One more compound: CC(C)C[C@H](NC(=O)CNC(=O)c1cc(Cl)ccc1Cl)B(O)O
Output: inactive

----------
# experiment-notes: drug combination growth inhibition, ovarian cancer – cell-based, oncology-focused library, rucaparib conditional, profiling panel (AID 1508598)
# details: patient-derived ovarian cancer cells, CellTiter-Glo viability, 144 h; at 0.00488 µM; OCI-C5x cells; with rucaparib 10 µM; 100% = cells with rucaparib alone
The source made the active and inactive calls.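 Rule for the calls: active = normalized viability below 100% at a tested concentration; inactive = the rest.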
Reply using exactly one outcome from active, inactive

Input: Test call for this compound, please: O=C(O)[C@H](Cc1c[nH]c2ccccc12)N1C(=O)c2ccccc2C1=O
Output: inactive

Input: One more compound: CCn1c(-c2nonc2N)nc2c(C#CC(C)(C)O)ncc(OC[C@H]3CCCNC3)c21
Output: inactive

Input: One more compound: CNC(=O)c1cc(Oc2ccc(NC(=O)Nc3cc(C(C)(C)C)nn3-c3ccc4ncccc4c3)c(F)c2)ccn1
Output: inactive

Input: One more compound: C=CC(=O)Nc1cc(Nc2nccc(-c3cn(C)c4ccccc34)n2)c(OC)cc1N(C)CCN(C)C
Output: inactive

Input: One more compound: CS(=O)(=O)N1CCc2c(-c3cnc(N)nc3)nc(N3CCOCC3)nc21
Output: active

Input: One more compound: Cn1c(=O)c(F)c(Nc2ccc(I)cc2F)c2c(=O)n(C[C@@H](O)CO)cnc21
Output: inactive

Input: One more compound: CN(c1ncccc1CNc1nc(Nc2ccc3c(c2)CC(=O)N3)ncc1C(F)(F)F)S(C)(=O)=O
Output: inactive

Input: One more compound: C#CC[C@H](c1nc2cc(Cl)ccc2c(=O)n1Nc1ccccc1)N(CCCN)C(=O)c1cccc(Cl)c1F
Output: inactive

----------
# experiment-notes: viability loss with induced miR-34 in A549 – imaging, A549 dox-inducible miR-34, nuclei and caspase counts, primary screen (AID 1347080)
# details: A549 miR-34 inducible, Hoechst nuclei count, 48 h; stronger effect = lower value; cell number ratio, induced over uninduced
property: fold change
Note: the reply should be a number with no unit written.

Input: Quick one: fold change for COc1ccc2cccc(N3CCN(CCNC(=O)c4ccc(F)cc4)CC3)c2c1 ?
Output: 0.924

Input: One more compound: O=C(Nc1c(-c2cccs2)nc2ccccn12)c1ccc(Cl)cc1
Output: 0.889

Input: One more compound: CNC(=O)c1cc(COc2nnc(Nc3ccc(Cl)cc3)c3ccoc23)ccn1
Output: 0.883

Input: One more compound: Cc1cc(N2CCOCC2)ccc1Nc1nc(NC2CCCCC2)c2[nH]cnc2n1
Output: 0.907

Input: One more compound: CC(C)OC(=O)CCC/C=C\C[C@H]1C(=O)C[C@@H](O)[C@@H]1/C=C/[C@@H](O)COc1cccc(C(F)(F)F)c1
Output: 0.919

Input: One more compound: Nc1nc(Nc2ccc(S(N)(=O)=O)cc2)nn1C(=O)c1c(F)cccc1F
Output: 0.887

----------
Please respond with reported inhibition for every item in the list.
# experiment-notes: growth inhibition, single agent and combos, cell-based, chromothripsis tumors, cisplatin or BGB combos (AID 1671450);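 further: cells exposed to compound for four days; 0% = vehicle DMSO and 100% = cell killing by high DMSO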
# details: HDN33 neuroblastoma cells, at 0.5 µM, stronger effect = higher value
Write down the numeric answer in % and omit the unit.

Input: Quick one: inhibition for COc1ccc(-n2c(SCCCN3C(=O)c4cccc5cccc(c45)C3=O)nnc2-c2ccncc2)cc1 ?
Output: 4

Input: One more molecule: Nc1nc2n[nH]nc2c(=O)[nH]1
Output: -10.2

Input: One more molecule: Cc1ccc2nc(NCCN)c3ncc(C)n3c2c1
Output: -5

Input: One more molecule: Nc1nc(OCc2cc(Br)cs2)c2[nH]cnc2n1
Output: -12.4

Input: One more molecule: CN(C)Cc1c(C(=O)NCCOc2ccc(C(=O)NO)cc2)oc2ccccc12
Output: 78.8

Input: One more molecule: O=c1[nH]cnc2ccccc12
Output: -4.24

Input: One more molecule: CN[C@@H]1CN(c2ccc3c(=O)c(C(=O)O)cn(-c4nccs4)c3n2)C[C@H]1OC
Output: 57

Input: One more molecule: CC(C)OC(=O)[C@H](C)N[P@](=O)(OC[C@H]1O[C@@H](n2ccc(=O)[nH]c2=O)[C@](C)(F)[C@@H]1O)Oc1ccccc1
Output: -7.68

Input: One more molecule: NCCOc1cc(C(=O)Nc2cc(OCCN)c3ccccc3n2)nc(C(=O)Nc2cc(OCCN)c3ccccc3n2)c1
Output: -9.7

Input: One more molecule: O=C(/C=C/c1ccc(CN(CCO)CCc2c[nH]c3ccccc23)cc1)NO
Output: 99.3

Input: One more molecule: CC(=O)Nc1nc(C)c(-c2ccc(Cl)c(S(=O)(=O)NCCO)c2)s1
Output: 22.6

Input: One more molecule: O=C(/C=C/c1cccc(S(=O)(=O)Nc2ccccc2)c1)NO
Output: 28.3

----------
Please respond with reported inhibition for every item in the list.
# experiment-notes: growth inhibition, single agent and combos, cell-based, chromothripsis tumors, cisplatin or BGB combos (AID 1671450);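 further: cells exposed to compound for four days; 0% = vehicle DMSO and 100% = cell killing by high DMSO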
# details: HDN33 neuroblastoma cells, measured here: with BGB IC20 combination, at 0.5 µM, stronger effect = higher value
Write down the numeric answer in % and omit the unit.

Input: Quick one: inhibition for O=c1[nH]c([C@@H]2CCCN2)nc2c1oc1ccc(Cl)cc12 ?
Output: -15.4

Input: One more compound: O=C(/C=C/c1cccc(S(=O)(=O)Nc2ccccc2)c1)NO
Output: 17.9

Input: One more compound: CC(=O)[C@]1(N)Cc2c(O)c3c(c(O)c2[C@@H](O[C@H]2C[C@H](O)[C@H](O)CO2)C1)C(=O)c1ccccc1C3=O
Output: 0.353

Input: One more compound: COc1ccc(C(=O)CC2(O)C(=O)Nc3c(Cl)ccc(Cl)c32)cc1 (stereo unspecified)
Output: 21.3

Input: One more compound: O=C(CCCCCCNC(=O)c1cnc(N(c2ccccc2)c2ccccc2Cl)nc1)NO
Output: 15.8

Input: One more compound: O=C(COc1cccc2c(=O)[nH]ccc12)c1ccccc1
Output: -14.4

----------
# experiment-notes: viability loss in pontine glioma line – cell-based, SU-DIPG-XIII, MIPE5.0, CellTiter-Glo, qHTS, dose response (AID 1347064);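 on AC50: cells exposed to compound for 48 hours before the viability read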
# details: CellTiter-Glo ATP luminescence
Inconclusive results are not listed. Active and inactive are the calls of the source. The limit is not given here; nearly all actives have AC50 up to about 23 µM.
Reply using exactly one outcome from true for active, false for inactive

Input: Test call for this compound, please: CONC(=O)Nc1ccc(-c2sc3c(c2CN(C)C)c(=O)n(-c2ccc(OC)nn2)c(=O)n3Cc2c(F)cccc2F)cc1
Output: false

Input: One more compound: C=C1C(=O)O[C@H]2C[C@H](C)C(/C=C/C(C)=O)=CC[C@H]12
Output: true

Input: One more compound: Cc1ccc(-c2ccc3ncc4c(c3n2)n(C2CCN(C(=O)[C@H](C)O)CC2)c(=O)n4C)cn1
Output: true

Input: One more compound: CC[C@H](CC[C@@H](C)[C@H]1CC[C@H]2[C@@H]3CC=C4C[C@@H](O)CC[C@]4(C)[C@H]3CC[C@]12C)C(C)C
Output: false

Input: One more compound: CN1CCN(c2ncc(-c3cc(Cl)cc(Cl)c3Cl)c(N)n2)CC1
Output: false

Input: One more compound: Cc1ccc(C(=O)Nc2ccc(CN3CCN(C)CC3)c(C(F)(F)F)c2)cc1C#Cc1cnc2cccnn12
Output: true

Input: One more compound: Cc1c[nH]c2ncnc(N3CCC(CN)(C(=O)Nc4cccc(OC(=O)N(C)C)c4)CC3)c12
Output: true

Input: One more compound: O=C(O)C1=CC(O)C(O)[C@H](O)C1 (stereo partly drawn)
Output: false

Input: One more compound: C[C@](Cc1c[nH]c2ccccc12)(NC(=O)OC1C2CC3CC(C2)CC1C3)C(=O)NC[C@H](NC(=O)CCC(=O)O)c1ccccc1 (stereo partly drawn)
Output: false

Input: One more compound: COc1ccccc1[C@H](c1cccc2ccccc12)[C@@](C)(C#N)C(=O)N1CCC(c2cccc(C(F)(F)F)c2)CC1
Output: false

Input: One more compound: C[C@H](NC(=O)/C(C#N)=C/c1cccc(Br)n1)c1ccccc1
Output: true

Input: One more compound: CC(C)(C)c1cnc(CSc2cnc(NC(=O)C3CCNCC3)s2)o1
Output: true

Input: One more compound: Nc1ccc(/C=C/C(=O)NCc2cc3cc(-c4ccc(C(=O)N5CCC(F)(F)CC5)cc4)cc(-c4ccc(F)cc4)c3o2)cn1
Output: true
